Study System: T1, human CD47 on cells (human CD47-transfected CHO-K1; HL60) (human, UniProt Q08722 19-323)
T1 construct: whole, on cells; also called human CD47+ cells; human CD47+HL60 cells
Assay Comment: flow cytometry, human CD47-transfected CHO-K1, FIG. 6
Metric: maximum MFI, fold over untransfected CHO-K1

binder="mVH/mVL (chimeric VxP037) in human IgG4(S228P) format (antibody, V domains shown, IgG4 with S228P; also called mVH/mVL IgG4) VH: EVQLQQFGAELVKPGASMKLSCKASGYTFTNYYVFWVKQRPGQGLEWIGDINPVNGDTNFNEKFKNKATLTVDKSSTTTYLQLSSLTSEDSAVYYCTRGGYTMDYWGQGTLVTVSS VL: DVVMTQTPLSLSVSLGDQASISCRSSQSLVHSNGNTYLHWYLQKPGQSPKLLIYKVSYRFSGVPDRFSGSGSGTDFTLKISRVEAEDLGVYFCSQNTHVPRTFGQGTKVEIK" recorded_measurement="> 10 fold"
